Where do these numbers come from? They come from patent US20210122814A1.

target.entity: Matrix-associated proTGFβ1 (hLTBP1-proTGFβ1 and hLTBP3-proTGFβ1)
experimental.details: BLI (Octet)
Please provide measured ECM AVRG (average KD) for the entries that follow.
In your response, the unit should come after the numeric value.

Need ECM AVRG (average KD), item Ab33 (antibody, V domains shown) VH: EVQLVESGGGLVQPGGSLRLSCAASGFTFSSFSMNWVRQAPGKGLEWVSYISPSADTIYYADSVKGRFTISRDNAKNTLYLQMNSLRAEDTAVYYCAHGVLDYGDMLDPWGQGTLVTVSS VL: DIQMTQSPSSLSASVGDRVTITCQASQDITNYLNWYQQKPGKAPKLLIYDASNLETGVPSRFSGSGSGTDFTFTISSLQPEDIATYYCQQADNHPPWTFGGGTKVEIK
0.145 nM

Need ECM AVRG (average KD), item Ab31 (antibody, V domains shown) VH: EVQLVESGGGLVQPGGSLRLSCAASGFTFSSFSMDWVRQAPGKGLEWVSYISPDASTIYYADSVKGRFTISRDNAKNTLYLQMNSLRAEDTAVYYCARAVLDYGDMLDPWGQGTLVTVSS VL: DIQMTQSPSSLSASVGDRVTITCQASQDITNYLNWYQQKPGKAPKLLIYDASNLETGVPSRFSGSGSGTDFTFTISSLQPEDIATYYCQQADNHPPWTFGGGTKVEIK
0.208 nM

Need ECM AVRG (average KD), item Ab28 (antibody, V domains shown) VH: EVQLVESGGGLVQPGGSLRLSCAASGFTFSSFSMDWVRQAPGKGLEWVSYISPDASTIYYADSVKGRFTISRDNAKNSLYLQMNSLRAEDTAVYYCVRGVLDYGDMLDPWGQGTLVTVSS VL: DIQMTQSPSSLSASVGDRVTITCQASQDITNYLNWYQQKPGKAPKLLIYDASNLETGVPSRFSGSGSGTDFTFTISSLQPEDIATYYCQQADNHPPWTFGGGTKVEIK
0.328 nM
